Target or system: Bile acid receptor (Homo sapiens)
Test summary: ATG_IR1_CIS: Attagene CIS-FACTORIAL HepG2 Assay for human Nuclear Receptor Subfamily 1 Group H Member 4 (NR1H4), IR1 submotif (AID 2282946)
Experimental conditions: IR1 reporter transcription, actives raise or lower the signal
Calls of active or inactive are those of the source. How the source made its calls: active means hit-call score of the fitted dose curve at least 0.9, where 1 is the maximum; inactive means score below 0.9.
Outcomes: Yes for active, No for inactive

{"Compound": "Brc1ccc(Oc2ccc(Br)cc2Br)cc1", "Target or system": "Bile acid receptor (Homo sapiens)", "Discrete label": "No"}
{"Compound": "C/C=C/C(=O)C1=C(C)CCCC1(C)C", "Target or system": "Bile acid receptor (Homo sapiens)", "Discrete label": "Yes"}
{"Compound": "O=C1Cc2ccccc2N1c1c(Cl)cccc1Cl", "Target or system": "Bile acid receptor (Homo sapiens)", "Discrete label": "Yes"}
{"Compound": "CCCCCCCCCCCCCC[n+]1ccccc1", "Target or system": "Bile acid receptor (Homo sapiens)", "Discrete label": "No"}
{"Compound": "CCc1cccc(CC)c1NC(=O)C(=O)O", "Target or system": "Bile acid receptor (Homo sapiens)", "Discrete label": "No"}
{"Compound": "C[C@]12CC[C@@H]3c4ccc(O)cc4CC[C@H]3[C@@H]1CC[C@@H]2OC(=O)CCC1CCCC1", "Target or system": "Bile acid receptor (Homo sapiens)", "Discrete label": "No"}
{"Compound": "Cc1ccc(C(=O)c2ccccc2)cc1", "Target or system": "Bile acid receptor (Homo sapiens)", "Discrete label": "No"}
{"Compound": "O=S(=O)(O)C(F)(F)C(F)(F)C(F)(F)C(F)(F)C(F)(F)C(F)(F)C(F)(F)C(F)(F)C(F)(F)C(F)(F)F", "Target or system": "Bile acid receptor (Homo sapiens)", "Discrete label": "No"}
{"Compound": "COC(=O)CC(C(C)=O)C(=O)OC (configuration not stated)", "Target or system": "Bile acid receptor (Homo sapiens)", "Discrete label": "No"}
{"Compound": "CC(C)(C)c1ccc(CCC=O)cc1", "Target or system": "Bile acid receptor (Homo sapiens)", "Discrete label": "No"}
{"Compound": "O=CC(F)(F)C(F)(F)C(F)(F)C(F)F", "Target or system": "Bile acid receptor (Homo sapiens)", "Discrete label": "No"}
{"Compound": "O=C(O)c1cccc(C(=O)O)n1", "Target or system": "Bile acid receptor (Homo sapiens)", "Discrete label": "No"}
{"Compound": "C=CC(=O)OCCC(F)(F)C(F)(F)C(F)(F)C(F)(F)C(F)(F)C(F)(F)F", "Target or system": "Bile acid receptor (Homo sapiens)", "Discrete label": "No"}
{"Compound": "Oc1c(Cl)cc(Cl)cc1Sc1cc(Cl)cc(Cl)c1O", "Target or system": "Bile acid receptor (Homo sapiens)", "Discrete label": "No"}
{"Compound": "O=C(O)CCC(F)(F)C(F)(F)C(F)(F)C(F)(F)C(F)(F)C(F)(F)F", "Target or system": "Bile acid receptor (Homo sapiens)", "Discrete label": "No"}
{"Compound": "CC(C)(O)C(=O)c1ccccc1", "Target or system": "Bile acid receptor (Homo sapiens)", "Discrete label": "No"}
{"Compound": "COC(=O)C(F)(F)C(F)(F)C(F)(F)F", "Target or system": "Bile acid receptor (Homo sapiens)", "Discrete label": "No"}
{"Compound": "CCc1ccccc1O", "Target or system": "Bile acid receptor (Homo sapiens)", "Discrete label": "No"}
{"Compound": "Clc1ccc2c(Cl)ccnc2c1", "Target or system": "Bile acid receptor (Homo sapiens)", "Discrete label": "No"}
{"Compound": "O=C(OC(=O)C(F)(F)C(F)(F)F)C(F)(F)C(F)(F)F", "Target or system": "Bile acid receptor (Homo sapiens)", "Discrete label": "No"}
{"Compound": "C=COC(=O)C(C)(C)CCCCCC", "Target or system": "Bile acid receptor (Homo sapiens)", "Discrete label": "No"}
{"Compound": "O=C(O)CN(CCCN(CC(=O)O)CC(=O)O)CC(=O)O", "Target or system": "Bile acid receptor (Homo sapiens)", "Discrete label": "No"}
{"Compound": "Oc1ccc(Cc2ccccc2O)cc1", "Target or system": "Bile acid receptor (Homo sapiens)", "Discrete label": "No"}
{"Compound": "O=C(Nc1cccc([N+](=O)[O-])c1)c1cc2ccccc2cc1O", "Target or system": "Bile acid receptor (Homo sapiens)", "Discrete label": "No"}
{"Compound": "OCC(CO)(CBr)CBr", "Target or system": "Bile acid receptor (Homo sapiens)", "Discrete label": "No"}
{"Compound": "O=C(O)C(F)(F)OC(F)(F)C(F)(F)OC(F)(F)C(F)(F)OC(F)(F)C(F)(F)C(F)(F)C(F)(F)F", "Target or system": "Bile acid receptor (Homo sapiens)", "Discrete label": "No"}
{"Compound": "O=C(c1cc(O)c(O)c(O)c1)c1ccc(O)c(O)c1O", "Target or system": "Bile acid receptor (Homo sapiens)", "Discrete label": "No"}

---

Read-out: Epidermal growth factor receptor (EGFR), EGFR (gene 1956)
Test summary: BSK_hDFCGF_EGFR: BioMAP Diversity Plus: hDFCGF Assay for Epidermal growth factor receptor (EGFR) Biomarker Activity (AID 2283057)
Experimental conditions: primary human foreskin fibroblasts; actives raise or lower the signal
Calls of active or inactive are those of the source. How the source made its calls: active means hit-call score of the fitted dose curve at least 0.9, where 1 is the maximum; inactive means score below 0.9.
Outcomes: active, inactive

{"Compound": "OCC(CO)(CBr)CBr", "Discrete label": "inactive"}
{"Compound": "Cc1[nH]nc2c1N=C(c1ccccc1Cl)c1cc([N+](=O)[O-])ccc1N2", "Discrete label": "active"}
{"Compound": "CN(Cc1cnc2nc(N)nc(N)c2n1)c1ccc(C(=O)N[C@@H](CCC(=O)O)C(=O)O)cc1", "Discrete label": "inactive"}
{"Compound": "O=C1OC2(c3ccccc31)c1cc(I)c(O)c(I)c1Oc1c2cc(I)c(O)c1I", "Discrete label": "active"}
{"Compound": "CCCCCCCCCCCCOS(=O)(=O)O", "Discrete label": "active"}
{"Compound": "C=COC(=O)C(C)(C)CCCCCC", "Discrete label": "inactive"}
{"Compound": "CS(=O)(=O)c1ccc([C@@H](CC2CCCC2)C(=O)Nc2cnccn2)cc1Cl", "Discrete label": "inactive"}
{"Compound": "Cc1ccc(C(=O)c2ccccc2)cc1", "Discrete label": "inactive"}
{"Compound": "CCCCCc1ccc(O)cc1", "Discrete label": "active"}
{"Compound": "CC1=NN(c2ccccc2)C(=O)C1", "Discrete label": "inactive"}
{"Compound": "COc1cccc(O)c1", "Discrete label": "inactive"}
{"Compound": "CC(C)(C)c1ccc(O)c(O)c1", "Discrete label": "inactive"}
{"Compound": "C=CC(=O)OCCC(F)(F)C(F)(F)C(F)(F)C(F)(F)C(F)(F)C(F)(F)C(F)(F)C(F)(F)F", "Discrete label": "inactive"}
{"Compound": "CN(CCO)S(=O)(=O)C(F)(F)C(F)(F)C(F)(F)C(F)(F)C(F)(F)C(F)(F)C(F)(F)C(F)(F)F", "Discrete label": "inactive"}
{"Compound": "Cc1ccc(N=Nc2c(O)ccc3ccccc23)c(C)c1", "Discrete label": "inactive"}
{"Compound": "CCCCCCCCCCCC", "Discrete label": "inactive"}
{"Compound": "O=C1NS(=O)(=O)c2ccccc21", "Discrete label": "inactive"}
{"Compound": "CCCCC(CC)C(=O)OCCOCCOCCOCCOC(=O)C(CC)CCCC (stereo unspecified)", "Discrete label": "inactive"}
{"Compound": "O=C(O)C(F)(F)OC(F)(F)C(F)(F)OC(F)(F)C(F)(F)OC(F)(F)C(F)(F)C(F)(F)C(F)(F)F", "Discrete label": "inactive"}
{"Compound": "CCCCCCCCCCCCCCCCCC[N+](C)(C)Cc1ccccc1", "Discrete label": "inactive"}
{"Compound": "CCCCc1oc2ccccc2c1C(=O)c1cc(I)c(OCCN(CC)CC)c(I)c1", "Discrete label": "inactive"}

---

Test summary: BSK_3C_Proliferation: Cell Proliferation Assessment in the BioMAP Diversity Plus: 3C Assay (AID 2283006)
Experimental conditions: primary human endothelial cells (HUVEC)
Calls of active or inactive are those of the source. How the source made its calls: active means hit-call score of the fitted dose curve at least 0.9, where 1 is the maximum; inactive means score below 0.9.
Outcomes: true = active, false = inactive

{"Molecule": "C=CC(C)(CCC=C(C)C)OC(C)=O (stereo unspecified)", "Discrete label": "true"}
{"Molecule": "O=C(CCCN1CCC(O)(c2ccc(Cl)cc2)CC1)c1ccc(F)cc1", "Discrete label": "true"}
{"Molecule": "CCCCC(CC)C(=O)OCCOCCOCCOCCOC(=O)C(CC)CCCC (stereo unspecified)", "Discrete label": "true"}
{"Molecule": "O=C(c1ccccc1)c1ccccc1", "Discrete label": "false"}
{"Molecule": "C[C@]12CC[C@@H]3c4ccc(O)cc4CC[C@H]3[C@@H]1C[C@@H](O)[C@@H]2O", "Discrete label": "false"}
{"Molecule": "NC(=NCCCCCCN=C(N)/N=C(\\N)Nc1ccc(Cl)cc1)/N=C(\\N)Nc1ccc(Cl)cc1", "Discrete label": "true"}
{"Molecule": "CC(C)(C)c1ccc(O)c(O)c1", "Discrete label": "true"}
{"Molecule": "C=COC(=O)C(C)(C)CCCCCC", "Discrete label": "true"}
{"Molecule": "COCN(COC)c1nc(N(COC)COC)nc(N(COC)COC)n1", "Discrete label": "false"}
{"Molecule": "CCCCC(CC)C(=O)O (stereo unspecified)", "Discrete label": "false"}
{"Molecule": "CS(=O)(=O)c1ccc([C@@H](CC2CCCC2)C(=O)Nc2cnccn2)cc1Cl", "Discrete label": "true"}
{"Molecule": "O=P(O)(O)CCC(F)(F)C(F)(F)C(F)(F)C(F)(F)C(F)(F)C(F)(F)F", "Discrete label": "false"}
{"Molecule": "CN(C)c1ccc(C(=C2C=CC(=[N+](C)C)C=C2)c2ccccc2)cc1", "Discrete label": "true"}
{"Molecule": "C=CC(=O)OCCC(F)(F)C(F)(F)C(F)(F)C(F)(F)C(F)(F)C(F)(F)C(F)(F)C(F)(F)F", "Discrete label": "false"}
{"Molecule": "N=C(N)c1ccc(OCCCCCOc2ccc(C(=N)N)cc2)cc1", "Discrete label": "true"}
{"Molecule": "CCCCc1oc2ccccc2c1C(=O)c1cc(I)c(OCCN(CC)CC)c(I)c1", "Discrete label": "true"}
